B1: CPEB3 Ribozyme (parent)
chain: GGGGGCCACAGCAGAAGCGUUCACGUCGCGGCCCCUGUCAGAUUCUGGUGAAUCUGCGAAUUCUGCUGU

Variants of: B1
procedureText: self-cleavage, relative activity (ratio to wild type); higher = more cleavage; co-transcriptional
Tick 1 if self-cleavage is 0.2 or greater. Tick 0 if self-cleavage is less than 0.2.

variantNotation	assignedCategory
C18U G47U	1

Task item: Is reported self-cleavage greater than or equal to 0.2 here: A16G U55C
Reply: 1

Task item: Is reported self-cleavage greater than or equal to 0.2 here: G17A G41C
Reply: 0

Task item: Is reported self-cleavage greater than or equal to 0.2 here: C12G G25U
Reply: 0

Task item: Is reported self-cleavage greater than or equal to 0.2 here: A13G C39G
Reply: 1

Task item: Is reported self-cleavage greater than or equal to 0.2 here: G2A A40U
Reply: 0

Task item: Is reported self-cleavage greater than or equal to 0.2 here: C57G C63A
Reply: 1
